Biological target: Aβ42 (Homo sapiens, UniProt P05067)
Sequence (P05067 672-713): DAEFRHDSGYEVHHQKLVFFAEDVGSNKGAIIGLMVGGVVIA
Experiment: Th-T (thioflavin-T) assay of Aβ42 aggregation
Assay type: biochemical
Details: head suffix _50 (concentration 50); reading M83
Reported endpoint: Th-T fluorescence of Aβ42 (sheet Fig. 7a), mean of three wells

[[record]]
molecule = "C=C1CCC2C(C)(CCC=C(C)C)C(O)CCC2(C)C1Cc1c(OC)oc(CO)c(C(=O)OC)c1=O (centres unmarked) [Compound 13]"
target_entity = "Aβ42 (Homo sapiens, UniProt P05067)"
quantitative_result = 0.4714

[[record]]
molecule = "C=C1CCC2C(C)(CCC=C(C)C)C(O)CCC2(C)C1Cc1c(OC)oc(C)c(C(=O)OC)c1=O (centres unmarked) [Compound 14]"
target_entity = "Aβ42 (Homo sapiens, UniProt P05067)"
quantitative_result = 2.154

[[record]]
molecule = "C=C1CC[C@@H]2[C@](C)(CC[C@H]3O[C@H](C=C(C)C)C[C@@]23C)[C@@H]1Cc1c(OC)oc(CO)c(C)c1=O [Compound 20]"
target_entity = "Aβ42 (Homo sapiens, UniProt P05067)"
quantitative_result = 2.096

[[record]]
molecule = "C=C1CCC2C(C)(CCC=C(C)C)C(O)CCC2(C)C1Cc1c(OC)oc(CO)c(C)c1=O (centres unmarked) [Compound 12]"
target_entity = "Aβ42 (Homo sapiens, UniProt P05067)"
quantitative_result = 1.439

[[record]]
molecule = "C=C1CC[C@@H]2[C@](C)(CC[C@H]3O[C@H](C=C(C)C)C[C@@]23C)[C@@H]1Cc1c(OC)oc(CO)c(C(=O)OC)c1=O [Compound 21]"
target_entity = "Aβ42 (Homo sapiens, UniProt P05067)"
quantitative_result = 0.3612

